Target: ΔF508-CFTR (Homo sapiens, UniProt P13569, DEL508-508)
Construct: host or cells: CFBE41o-, doxycycline-inducible
Sequence (P13569 with tags, fused parts or gaps DEL508-508): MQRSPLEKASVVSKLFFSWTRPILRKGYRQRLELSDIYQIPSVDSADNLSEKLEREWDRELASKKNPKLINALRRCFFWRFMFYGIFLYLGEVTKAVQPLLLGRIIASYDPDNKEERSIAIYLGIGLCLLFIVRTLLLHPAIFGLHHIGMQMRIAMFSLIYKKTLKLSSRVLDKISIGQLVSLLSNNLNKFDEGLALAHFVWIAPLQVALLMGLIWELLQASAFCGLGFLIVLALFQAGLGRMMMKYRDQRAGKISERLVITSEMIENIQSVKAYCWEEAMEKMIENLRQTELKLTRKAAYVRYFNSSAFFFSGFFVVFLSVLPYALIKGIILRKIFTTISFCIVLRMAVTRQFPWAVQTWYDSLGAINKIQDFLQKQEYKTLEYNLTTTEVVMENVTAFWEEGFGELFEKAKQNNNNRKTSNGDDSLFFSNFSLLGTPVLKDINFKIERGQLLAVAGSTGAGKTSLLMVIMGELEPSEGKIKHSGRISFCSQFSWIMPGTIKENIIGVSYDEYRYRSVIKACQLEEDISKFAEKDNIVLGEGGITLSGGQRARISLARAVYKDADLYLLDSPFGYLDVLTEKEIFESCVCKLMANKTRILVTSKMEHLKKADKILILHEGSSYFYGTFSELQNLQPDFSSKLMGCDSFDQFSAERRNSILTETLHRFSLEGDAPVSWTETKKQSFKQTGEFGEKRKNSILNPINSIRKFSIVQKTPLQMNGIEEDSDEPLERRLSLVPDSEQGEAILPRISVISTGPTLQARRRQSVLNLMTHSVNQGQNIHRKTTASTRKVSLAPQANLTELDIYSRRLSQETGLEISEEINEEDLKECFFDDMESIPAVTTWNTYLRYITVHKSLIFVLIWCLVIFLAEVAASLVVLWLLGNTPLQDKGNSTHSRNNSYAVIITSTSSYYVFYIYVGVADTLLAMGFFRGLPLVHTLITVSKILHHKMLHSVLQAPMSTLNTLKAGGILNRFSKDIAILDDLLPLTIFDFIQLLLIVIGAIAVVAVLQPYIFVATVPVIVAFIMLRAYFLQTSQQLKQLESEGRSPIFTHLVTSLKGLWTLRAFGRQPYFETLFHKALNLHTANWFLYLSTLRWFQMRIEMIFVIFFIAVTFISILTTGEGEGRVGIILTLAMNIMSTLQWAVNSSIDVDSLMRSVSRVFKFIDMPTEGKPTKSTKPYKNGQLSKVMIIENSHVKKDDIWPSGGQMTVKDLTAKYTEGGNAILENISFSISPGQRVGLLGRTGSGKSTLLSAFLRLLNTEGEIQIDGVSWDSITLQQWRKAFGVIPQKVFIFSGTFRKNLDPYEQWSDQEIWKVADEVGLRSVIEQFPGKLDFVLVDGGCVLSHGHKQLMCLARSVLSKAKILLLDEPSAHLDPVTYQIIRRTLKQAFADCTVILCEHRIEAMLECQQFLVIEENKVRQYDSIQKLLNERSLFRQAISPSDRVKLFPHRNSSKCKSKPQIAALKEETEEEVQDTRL
Assay: CFTR cell surface levels using HRP-tagged ΔF508-CFTR expressing CFBE cells, in the presence of a co-corrector
Type: cell-based
Conditions: HRP-tagged ΔF508-CFTR expressing CFBE cells, in the presence of 3 μM co-corrector; read-out: EC50
pEC50: −log10 of the molar value.
Parameter threshold = 6. Response is t when pEC50 meets or exceeds it, else f.

1) O=C(O)c1cc(N2CCC(N3CCC(F)CC3)CC2)c2c(C3CCC3)nn(-c3ccc(F)cc3)c2n1 [compound 849] = t
2) N#CC1CCN(c2ccc(-c3cc(C(=O)O)nc4c3c([C@H]3C[C@@H](F)C3)nn4-c3ccccc3)cn2)CC1 [compound 432] = t
3) COCC1CCN(c2cc(C(=O)O)nc3c2c(C(C)C)nn3-c2cc(C)nc(C)c2)CC1 [compound 677] = f
4) O=C(O)c1cc(N2CCC(N3CCOCC3)CC2)c2c(C3CCC3)nn(-c3ccnc(O)c3)c2n1 [compound 885] = f
5) COC1CN(CC2CCN(c3cc(C(=O)O)nc4c3c(C3CCC3)nn4-c3ccccc3)CC2)C1 [compound 829] = t
